src = patent US20020137929A1

- Test system: ECHORC (Watergrass (Calif.))
- assay-info: Postemergence weed control under flooded paddy conditions
- Format: in vivo, Echinochloa oryzoides
- assay-conditions: rate 0.0313 kg/ha, postemergence weeds, 3-4 weeks after treatment
Catalogue of Herbicidal rating ECHORC readings, one per entry.

compound	observed-value
CCOC(=O)CN1C(=O)C(CC(=O)NC)SC1=Nc1cc(-n2c(=O)cc(C(F)(F)F)n(C)c2=O)c(F)cc1Cl (stereo not shown)	0.0
COC(=O)CN1C(=O)CSC1=Nc1cc(-n2c(=O)cc(C(F)(F)F)n(C)c2=O)c(F)cc1Cl	4.0
Cn1c(C(F)(F)F)cc(=O)n(-c2cc(N=C3SCC(=O)N3CC(=O)NS(C)(=O)=O)c(Cl)cc2F)c1=O	0.0
C=CCN1C(=O)CSC1=Nc1cc(-n2c(=O)cc(C(F)(F)F)n(C)c2=O)c(F)cc1Cl	6.0
CCOC(=O)CN1C(=O)C(F)SC1=Nc1cc(-n2c(=O)cc(C(F)(F)F)n(C)c2=O)c(F)cc1Cl (stereo not shown)	1.0

The value of Herbicidal rating ECHORC recorded for C=CCN1C(=O)C(CC(=O)Nc2ccccc2)SC1=Nc1cc(-n2c(=O)cc(C(F)(F)F)n(C)c2=O)c(F)cc1Cl (stereo not shown) when tested on ECHORC (Watergrass (Calif.)) reads 6.0

The value of Herbicidal rating ECHORC recorded for CCOC(=O)CN1C(=O)C(C)SC1=Nc1cc(-n2c(=O)cc(C(F)(F)F)n(C)c2=O)c(F)cc1Cl (stereo not shown) when tested on ECHORC (Watergrass (Calif.)) reads 5.0

---

Catalogue of Herbicidal rating MOOVA readings, one per entry.
- System: MOOVA (Monochoria)
- assay-info: Preemergence weed control under flooded paddy conditions
- Type: in vivo, Monochoria vaginalis
- assay-conditions: 0.0313 kg/ha, rated 3-4 weeks after treatment
Number only, please.

compound	Herbicidal rating MOOVA
CCOC(=O)CN1C(=O)C(Cc2ccccc2OC(C)C(=O)OC)SC1=Nc1cc(-n2c(=O)cc(C(F)(F)F)n(C)c2=O)c(F)cc1Cl (stereo not shown)	0.0
CCOC(=O)CN1C(=O)C(C)SC1=Nc1cc(-n2c(=O)cc(C(F)(F)F)n(C)c2=O)c(F)cc1Cl (stereo not shown)	9.0
CCOC(=O)CN1C(=O)C(F)SC1=Nc1cc(-n2c(=O)cc(C(F)(F)F)n(C)c2=O)c(F)cc1Cl (stereo not shown)	0.0
CCOC(=O)CN1C(=O)CSC1=Nc1cc(N2C(=O)C3=C(CCCC3)C2=O)c(F)cc1Cl	5.0
CN1C(=O)CSC1=Nc1cc(N2C(=O)C3=C(CCCC3)C2=O)c(F)cc1Cl	8.0
CCC1SC(=Nc2cc(-n3c(=O)cc(C(F)(F)F)n(C)c3=O)c(F)cc2Cl)N(C)C1=O (stereo not shown)	9.0

Consider the record given below.
Value of measured Herbicidal rating MOOVA for the entry C=CCN1C(=O)C(CC(=O)Nc2ccccc2)SC1=Nc1cc(-n2c(=O)cc(C(F)(F)F)n(C)c2=O)c(F)cc1Cl (stereo not shown) : 4.0

---

Catalogue of Preemergence herbicidal rating GALAP readings, one per entry.
- Tested on: GALAP (Galium)
- assay-info: Preemergence herbicidal evaluation
- Format: in vivo, Galium aparine
- assay-conditions: rate 0.2500 kg/ha; rated 4-5 weeks after treatment
Number only, please.

compound	measure	observed-value
CCCCOC(=O)CN1C(=O)CSC1=Nc1cc(-n2c(=O)cc(C(F)(F)F)n(C)c2=O)c(F)cc1Cl [Compound 111]	Preemergence herbicidal rating GALAP	7.0
Cn1c(C(F)(F)F)cc(=O)n(-c2cc(N=C3SCC(=O)N3CC(=O)OCC3CC3)c(Cl)cc2F)c1=O [Compound 124]	Preemergence herbicidal rating GALAP	6.0
CCOC(=O)CN1C(=O)C(Cc2ccccc2OC(C)C(=O)O)S/C1=N/c1cc(-n2c(=O)cc(C(F)(F)F)n(C)c2=O)c(F)cc1Cl (stereo not shown) [Compound 114]	Preemergence herbicidal rating GALAP	9.0

The value of Preemergence herbicidal rating GALAP recorded for Cn1c(C(F)(F)F)cc(=O)n(-c2cc(N=C3SCC(=O)N3Cc3ccco3)c(Cl)cc2F)c1=O [Compound 122] when tested on GALAP (Galium) reads 4.0

---

- Test system: SETVI (Foxtail, Green)
- assay-info: Preemergence herbicidal evaluation
- Format: in vivo, Setaria viridis
- assay-conditions: rate 0.0313 kg/ha; rated 4-5 weeks after treatment
- Excerpt: Results of herbicide evaluation are expressed on a rating scale (0-9). The scale is based upon a visual observation of plant stand, vigor, malformation, size, chlorosis and overall plant appearance as compared with a control. […] The compounds evaluated are reported by compound number given in Example 37.
measure: SETVI preemergence herbicidal rating
Number only, please.

Before answering, review these 3 worked examples.
compound	SETVI preemergence herbicidal rating
O=C1CSC(=Nc2cc(N3C(=O)C4=C(CCCC4)C3=O)c(F)cc2Cl)N1c1ccccc1 [Compound 3]	0.0
CCOC(=O)CN1C(=O)C(CC)SC1=Nc1cc(-n2c(=O)cc(C(F)(F)F)n(C)c2=O)c(F)cc1Cl (stereo not shown) [Compound 13]	4.5
CCOC(=O)CN1C(=O)C(F)SC1=Nc1cc(-n2c(=O)cc(C(F)(F)F)n(C)c2=O)c(F)cc1Cl (stereo not shown) [Compound 11]	1.0

Consider the record given below.
Value of measured SETVI preemergence herbicidal rating for the entry CC1SC(=Nc2cc(-n3c(=O)cc(C(F)(F)F)n(C)c3=O)c(F)cc2Cl)N(C)C1=O (stereo not shown) [Compound 9] : 9.0

---

- Test system: IPOHE (Morningglory, Ivyleaf)
- assay-info: Preemergence herbicidal evaluation
- Assay type: in vivo, Ipomoea hederacea
- assay-conditions: rate 0.0313 kg/ha; rated 4-5 weeks after treatment
measure: Preemergence herbicidal rating IPOHE
Number only, please.

Before answering, review these 6 worked examples.
compound	measured-on	observed-value
CCOC(=O)CN1C(=O)C(SC)SC1=Nc1cc(-n2c(=O)cc(C(F)(F)F)n(C)c2=O)c(F)cc1Cl (centres unmarked)	IPOHE (Morningglory, Ivyleaf)	0.0
C#CCOC(=O)CC1SC(=Nc2cc(-n3c(=O)cc(C(F)(F)F)n(C)c3=O)c(F)cc2Cl)N(CC(=O)OCC)C1=O (centres unmarked)	IPOHE (Morningglory, Ivyleaf)	4.0
CCOC(=O)CN1C(=O)C(CC(=O)O)O/C1=N/c1cc(-n2c(=O)cc(C(F)(F)F)n(C)c2=O)c(F)cc1Cl (centres unmarked)	IPOHE (Morningglory, Ivyleaf)	0.0
CCOC(=O)[C@H](C)N1C(=O)CSC1=Nc1cc(-n2c(=O)cc(C(F)(F)F)n(C)c2=O)c(F)cc1Cl	IPOHE (Morningglory, Ivyleaf)	0.0
CCOC(=O)C(c1ccc(Cl)cc1)N1C(=O)CSC1=Nc1cc(-n2c(=O)cc(C(F)(F)F)n(C)c2=O)c(F)cc1Cl (racemic)	IPOHE (Morningglory, Ivyleaf)	0.0
Cn1c(C(F)(F)F)cc(=O)n(-c2cc(N=C3SCC(=O)N3CCC(=O)O)c(Cl)cc2F)c1=O	IPOHE (Morningglory, Ivyleaf)	0.0

Value of measured Preemergence herbicidal rating IPOHE for the entry CCOC(=O)CN1C(=O)C(CC(=O)OCc2ccccc2)OC1=Nc1cc(-n2c(=O)cc(C(F)(F)F)n(C)c2=O)c(F)cc1Cl (centres unmarked) : 0.0

Value of measured Preemergence herbicidal rating IPOHE for the entry "Cn1c(C(F)(F)F)cc(=O)n(-c2cc(N=C3SCC(=O)N3Cc3ccco3)c(Cl)cc2F)c1=O" : 0.0

Value of measured Preemergence herbicidal rating IPOHE for the entry "COC(=O)[C@H](Cc1ccc([N+](=O)[O-])cc1)N1C(=O)CSC1=Nc1cc(-n2c(=O)cc(C(F)(F)F)n(C)c2=O)c(F)cc1Cl" : 0.0

Value of measured Preemergence herbicidal rating IPOHE for the entry "CCOC(=O)CCN1C(=O)CSC1=Nc1cc(-n2c(=O)cc(C(F)(F)F)n(C)c2=O)c(Cl)cc1Cl" : 0.0

Value of measured Preemergence herbicidal rating IPOHE for the entry Cn1c(C(F)(F)F)cc(=O)n(-c2cc(N=C3SCC(=O)N3C3CCOC3=O)c(Cl)cc2F)c1=O (centres unmarked) : 1.0

---

Catalogue of Preemergence herbicidal rating CHEAL readings, one per entry.
- Tested on: CHEAL (Lambsquarters, Common)
- assay-info: Preemergence herbicidal evaluation
- Format: in vivo, Chenopodium album
- assay-conditions: rate 0.0313 kg/ha; rated 4-5 weeks after treatment
Number only, please.

molecule	Preemergence herbicidal rating CHEAL
CCOC(=O)CN1C(=O)C(CC(=O)NS(=O)(=O)C(C)C)SC1=Nc1cc(-n2c(=O)cc(C(F)(F)F)n(C)c2=O)c(F)cc1Cl (stereo not drawn)	9.0
COC(=O)[C@H](Cc1ccccc1)N1C(=O)CS/C1=N/c1cc(-n2c(=O)cc(C(F)(F)F)n(C)c2=O)c(F)cc1Cl	9.0
CCOC(=O)CN1C(=O)C[S+]([O-])/C1=N/c1cc(-n2c(=O)cc(C(F)(F)F)n(C)c2=O)c(F)cc1Cl (stereo not drawn)	9.0
CCOC(=O)[C@H](C)N1C(=O)CSC1=Nc1cc(-n2c(=O)cc(C(F)(F)F)n(C)c2=O)c(F)cc1Cl	9.0
CCOC(=O)CN1C(=O)C(CC(=O)OC(C)C)SC1=Nc1cc(-n2c(=O)cc(C(F)(F)F)n(C)c2=O)c(F)cc1Cl (stereo not drawn)	8.0

Consider the record given below.
The value of Preemergence herbicidal rating CHEAL recorded for CCOC(=O)CN1C(=O)C(CC(=O)OCc2ccccc2)OC1=Nc1cc(-n2c(=O)cc(C(F)(F)F)n(C)c2=O)c(F)cc1Cl (stereo not drawn) when tested on CHEAL (Lambsquarters, Common) reads 9.0
